# Assay Target: hnRNP-A2/B1 (Homo sapiens, UniProt P22626)
# Sequence (P22626 1-210): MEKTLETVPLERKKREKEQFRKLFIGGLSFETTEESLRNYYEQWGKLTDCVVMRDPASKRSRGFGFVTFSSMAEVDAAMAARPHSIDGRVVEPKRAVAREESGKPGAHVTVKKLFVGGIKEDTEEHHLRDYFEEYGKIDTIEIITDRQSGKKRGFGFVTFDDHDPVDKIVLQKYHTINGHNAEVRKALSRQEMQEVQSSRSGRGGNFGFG
# Assay Protocol: protein domain microarray probed with biotinylated miRNA; Domain array: 20 mM Tris-HCl pH 7.4, 200 mM KCl, 0.2 mM EDTA, 0.05% NP40, 2 ug/ul heparin, overnight 4 C. ORF array: PBS pH 7.0 with RNase inhibitor, 100 ng RNA; high values mean tight binding
# Condition Label: ssRNA
Kindly supply the reported binding signal values for the records listed here.
Give bare numbers, in fluorescence intensity.

Chain: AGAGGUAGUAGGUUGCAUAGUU
binding signal [fluorescence intensity]: 3610

Chain: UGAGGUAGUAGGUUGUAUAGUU
binding signal [fluorescence intensity]: 1500

Chain: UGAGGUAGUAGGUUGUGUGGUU
binding signal [fluorescence intensity]: 2240

Chain: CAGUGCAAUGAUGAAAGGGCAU
binding signal [fluorescence intensity]: 2240

Attention now shifts to the item below.
# query: binding signal | item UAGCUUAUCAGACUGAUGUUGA | system: hnRNP-A2/B1 (Homo sapiens, UniProt P22626) 255
